- Tested on: K-562 leukemia
- protocol: NCI tumour cell line growth inhibition, 48 h
endpointLabel: TGI

Reported TGI ( Nc1c(Cl)ncnc1NCCCNc1ncnc(Cl)c1N ) = > 100 µM

Reported TGI ( C[C@H](C/C=C/C(C)(C)O)[C@H]1CC[C@@]2(C)[C@@H]3CC[C@H]4C(C)(C)[C@@H](O)CC[C@@]45C[C@@]35CC[C@]12C ) = 70.3 µM

Reported TGI ( O=C1Nc2ccccc2/C1=c1\[nH]c(=O)/c(=C\c2ccc(OCc3ccccc3)cn2)[nH]c1=O ) = 75.9 µM

Reported TGI ( O=C1Nc2ccccc2Nc2ccncc21 ) = > 100 µM

Reported TGI ( Cc1ccc2c(c1)C(=O)C(C1OC(=O)c3ccccc31)C2 (stereo not given) ) = > 100 µM

Reported TGI ( CC1=C(C(=O)Nc2cc(F)c(F)cc2F)C(c2ccc([N+](=O)[O-])cc2)C(C(=O)Nc2cc(F)c(F)cc2F)=C(C)N1 ) = > 100 µM

Reported TGI ( NNC(=O)c1cc(=O)[nH][nH]1 ) = > 100 µM

Reported TGI ( COc1cc2c(=O)[nH]c3cc([N+](=O)[O-])ccc3c2cc1[N+](=O)[O-] ) = > 100 µM

Reported TGI ( CC(C)(C)OC(=O)NCCCCC(NC(=O)c1ccccc1)C(N)=O (stereo not given) ) = > 100 µM

Reported TGI ( COc1cccc(/C=N/[N-]C(N)=O)c1[O-].[Cu+2].[OH3+].c1ccc(-c2ccccn2)nc1 ) = 66 µM

* * *

- Tested on: OVCAR-8 ovarian
- protocol: NCI tumour cell line growth inhibition, 48 h; in the data active = GI50 below about 0.43 µM; inactive = the rest
Hello, when you answer, please use one of the following outcomes: active, inactive

Q) In this assay, the call recorded for NC(=S)c1c(N)n(C2OC(CO)C(O)C2O)c2ncnc(N)c12 (centres undefined) was what?
A) active

Q) In this assay, the call recorded for CC(=O)[CH-]C(=O)c1ccccc1.CC(=O)[CH-]C(=O)c1ccccc1.C[C@]12CCC(=O)C=C1CC[C@@H]1C2CC[C@@]2(C)C1CC[C@]2(C)[O-].C[C@]12CCC(=O)C=C1CC[C@@H]1C2CC[C@@]2(C)C1CC[C@]2(C)[O-].Cl.[Ti+4] (some centres undefined) was what?
A) inactive

Q) In this assay, the call recorded for O=C1NC(=NCCCc2ccccc2)S/C1=C\c1ccc2ncccc2c1 was what?
A) inactive

Q) In this assay, the call recorded for CN1CSC(=S)N(Cc2ccccc2)C1 was what?
A) inactive

Q) In this assay, the call recorded for C#CCOc1ccc2ncnc(Nc3ccc(NC(=O)C=C)cc3)c2c1 was what?
A) inactive

Q) In this assay, the call recorded for O=C1Cc2cc(C(=O)NC3C[C@H]4CC[C@@H](C3)N4S(=O)(=O)CC3CCN(CCCC(F)(F)F)CC3)c(Cl)cc2N1 (some centres undefined) was what?
A) inactive

Q) In this assay, the call recorded for Cc1cc(Cl)nc(N(CCCNc2ccnc3cc(Cl)ccc23)Cc2ccco2)n1 was what?
A) inactive

Q) In this assay, the call recorded for COc1ccc(N(C)c2nc(N)nc3sc4c(c23)CCCC4)cc1 was what?
A) active

Q) In this assay, the call recorded for O=C(Nc1nc2ccccc2s1)Nc1ccc([N+](=O)[O-])cc1Cl was what?
A) inactive

* * *

Provide the recorded TGI for the entries that follow.
- Tested on: U251 CNS
- protocol: NCI tumour cell line growth inhibition, 48 h
Provide only the numeric value, understood in µM.

Reported TGI ( CN(CCCNC(=O)CCOCCOCCOCCNC(=O)Cc1ccc2ccc3cccc4ccc1c2c34)CCCNc1cc(-c2ccc3ccccc3c2)nc2ccccc12 ) = 0.938

Reported TGI ( O=C1C(CN2CCOCC2)CCCC1CN1CCOCC1 (stereo unspecified) ) = 45

Reported TGI ( Cc1nc2ccccc2c(/C=C/c2ccc(Cl)cc2)c1C(=O)/C=C/c1ccc(Cl)cc1 ) = 3.03
